Reference source for all entries: patent US20250263390A1

target: ERα (Homo sapiens, UniProt P03372); construct: host or cells: MCF7; test: Estrogen receptor degradation activity: breast cancer cell ERα in cell western assay; format: cell-based; conditions: MCF7 cells, 4 hours, relative to fulvestrant 0.1 μM positive control
Sequence (P03372 whole entry): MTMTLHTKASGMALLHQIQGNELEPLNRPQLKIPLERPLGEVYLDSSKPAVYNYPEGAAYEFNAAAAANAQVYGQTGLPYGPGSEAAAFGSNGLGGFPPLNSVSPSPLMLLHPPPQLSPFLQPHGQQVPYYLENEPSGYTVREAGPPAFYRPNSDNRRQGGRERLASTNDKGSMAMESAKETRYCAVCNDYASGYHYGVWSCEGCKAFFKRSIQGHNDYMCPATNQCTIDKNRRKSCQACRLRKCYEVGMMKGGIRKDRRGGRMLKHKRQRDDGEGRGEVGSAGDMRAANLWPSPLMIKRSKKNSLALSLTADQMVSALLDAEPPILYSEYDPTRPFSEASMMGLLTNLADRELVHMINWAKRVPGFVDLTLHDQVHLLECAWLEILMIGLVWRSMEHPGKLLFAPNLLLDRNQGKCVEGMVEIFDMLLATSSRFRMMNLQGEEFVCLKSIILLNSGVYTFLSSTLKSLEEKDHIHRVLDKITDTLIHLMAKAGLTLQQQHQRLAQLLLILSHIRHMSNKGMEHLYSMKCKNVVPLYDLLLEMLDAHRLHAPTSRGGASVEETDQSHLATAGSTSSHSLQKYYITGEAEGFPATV
Items are presented alongside their recorded % Degradation At 0.3 μM.

>  <SMILES REPR>
CCc1c(C2=C(c3ccc(CC4CN(CCCF)C4)cc3)c3ccc(C(=O)O)cc3CCC2)cccc1C(F)(F)F

>  <UNITS LABEL>
%

>  <% Degradation At 0.3 μM>
93

$$$$
>  <SMILES REPR>
Cc1c(O)cccc1C1=C(c2ccc(CC3CN(CCCF)C3)cc2)c2ccc(C(=O)O)cc2CCC1.Cl

>  <UNITS LABEL>
%

>  <% Degradation At 0.3 μM>
90

$$$$
>  <SMILES REPR>
COc1cccc(Cl)c1C1=C(c2ccc(CC3CN(CCCF)C3)cc2)c2ccc(C(=O)O)cc2CCC1

>  <UNITS LABEL>
%

>  <% Degradation At 0.3 μM>
92

$$$$
>  <SMILES REPR>
COc1c(C2=C(c3ccc(CC4CN(CCCF)C4)cc3)c3ccc(C(=O)O)cc3CCC2)cccc1C(F)(F)F

>  <UNITS LABEL>
%

>  <% Degradation At 0.3 μM>
83

$$$$
>  <SMILES REPR>
CCc1c(F)cccc1C1=C(c2ccc(CC3CN(CCCF)C3)cc2)c2ccc(C(=O)O)cc2CCC1

>  <UNITS LABEL>
%

>  <% Degradation At 0.3 μM>
94

$$$$
>  <SMILES REPR>
COc1cc(C(F)(F)F)ccc1C1=C(c2ccc(CC3CN(CCCF)C3)cc2)c2ccc(C(=O)O)cc2CCC1.Cl

>  <UNITS LABEL>
%

>  <% Degradation At 0.3 μM>
92

$$$$
>  <SMILES REPR>
O=C(O)c1ccc2c(c1)CCCC(c1ccc(OC(F)(F)F)cc1)=C2c1ccc(CC2CN(CCCF)C2)cc1

>  <UNITS LABEL>
%

>  <% Degradation At 0.3 μM>
93

$$$$
>  <SMILES REPR>
COc1cccc(C2=C(c3ccc(CC4CN(CCCF)C4)cc3)c3ccc(C(=O)O)cc3CCC2)c1OC

>  <UNITS LABEL>
%

>  <% Degradation At 0.3 μM>
93

$$$$
>  <SMILES REPR>
COc1cc(C)cc(C)c1C1=C(c2ccc(CC3CN(CCCF)C3)cc2)c2ccc(C(=O)O)cc2CCC1

>  <UNITS LABEL>
%

>  <% Degradation At 0.3 μM>
91

$$$$
>  <SMILES REPR>
COc1cccc(C2=C(c3ccc(CC4CN(CCCF)C4)cc3)c3ccc(C(=O)O)cc3CCC2)c1C

>  <UNITS LABEL>
%

>  <% Degradation At 0.3 μM>
93

$$$$
>  <SMILES REPR>
COc1cc(C2=C(c3ccc(CC4CN(CCCF)C4)cc3)c3ccc(C(=O)O)cc3CCC2)ccc1C(F)(F)F.Cl

>  <UNITS LABEL>
%

>  <% Degradation At 0.3 μM>
93

$$$$
>  <SMILES REPR>
Cc1c(C2=C(c3ccc(CC4CN(CCCF)C4)cc3)c3ccc(C(=O)O)cc3CCC2)ccc(C(F)(F)F)c1F.Cl

>  <UNITS LABEL>
%

>  <% Degradation At 0.3 μM>
100

$$$$
>  <SMILES REPR>
Cc1ccc(C2=C(c3ccc(CC4CN(CCCF)C4)cc3)c3ccc(C(=O)O)cc3CCC2)c(C)c1Cl

>  <UNITS LABEL>
%

>  <% Degradation At 0.3 μM>
90

$$$$
>  <SMILES REPR>
COc1cccc(C)c1C1=C(c2ccc(CC3CN(CCCF)C3)cc2)c2ccc(C(=O)O)cc2CCC1.Cl

>  <UNITS LABEL>
%

>  <% Degradation At 0.3 μM>
92

$$$$
>  <SMILES REPR>
O=C(O)c1ccc2c(c1)CCCC(c1ccc(F)c(O)c1F)=C2c1ccc(CC2CN(CCCF)C2)cc1

>  <UNITS LABEL>
%

>  <% Degradation At 0.3 μM>
100

$$$$
